Experiment: Cmax in Wistar rat at 50 mg/kg, po
Format: ADME, organism-based
Parameters: dose 50 mg/kg, route oral
Conditions: in vivo
REPORTED PROPERTY: Cmax (ng/mL)
Hi! Could you send only the number? It should be in ng/mL, unit omitted.

Q: Need Cmax, item COc1ccc(N2Cc3cnc(Nc4ccc(F)cc4)nc3N(C3CC[C@@H](O)C3)C2=O)cc1 (single isomer, unassigned)
A: 3160

----------
Assay: Half life in nude mice at 200 mg/kg, po
Assay type: ADME, organism-based
Parameters: dose 200 mg/kg, route oral
Settings: mouse, in vivo
REPORTED PROPERTY: half-life

Q: Need half-life of COc1ccc(N2Cc3cnc(Nc4ccc(F)cc4)nc3N(C3CC[C@@H](O)C3)C2=O)cc1 (single isomer, unassigned) , thanks.
A: 1.7 h

----------
Target: Ephrin type-B receptor 3 (Homo sapiens)
Sequence (P54753 whole entry): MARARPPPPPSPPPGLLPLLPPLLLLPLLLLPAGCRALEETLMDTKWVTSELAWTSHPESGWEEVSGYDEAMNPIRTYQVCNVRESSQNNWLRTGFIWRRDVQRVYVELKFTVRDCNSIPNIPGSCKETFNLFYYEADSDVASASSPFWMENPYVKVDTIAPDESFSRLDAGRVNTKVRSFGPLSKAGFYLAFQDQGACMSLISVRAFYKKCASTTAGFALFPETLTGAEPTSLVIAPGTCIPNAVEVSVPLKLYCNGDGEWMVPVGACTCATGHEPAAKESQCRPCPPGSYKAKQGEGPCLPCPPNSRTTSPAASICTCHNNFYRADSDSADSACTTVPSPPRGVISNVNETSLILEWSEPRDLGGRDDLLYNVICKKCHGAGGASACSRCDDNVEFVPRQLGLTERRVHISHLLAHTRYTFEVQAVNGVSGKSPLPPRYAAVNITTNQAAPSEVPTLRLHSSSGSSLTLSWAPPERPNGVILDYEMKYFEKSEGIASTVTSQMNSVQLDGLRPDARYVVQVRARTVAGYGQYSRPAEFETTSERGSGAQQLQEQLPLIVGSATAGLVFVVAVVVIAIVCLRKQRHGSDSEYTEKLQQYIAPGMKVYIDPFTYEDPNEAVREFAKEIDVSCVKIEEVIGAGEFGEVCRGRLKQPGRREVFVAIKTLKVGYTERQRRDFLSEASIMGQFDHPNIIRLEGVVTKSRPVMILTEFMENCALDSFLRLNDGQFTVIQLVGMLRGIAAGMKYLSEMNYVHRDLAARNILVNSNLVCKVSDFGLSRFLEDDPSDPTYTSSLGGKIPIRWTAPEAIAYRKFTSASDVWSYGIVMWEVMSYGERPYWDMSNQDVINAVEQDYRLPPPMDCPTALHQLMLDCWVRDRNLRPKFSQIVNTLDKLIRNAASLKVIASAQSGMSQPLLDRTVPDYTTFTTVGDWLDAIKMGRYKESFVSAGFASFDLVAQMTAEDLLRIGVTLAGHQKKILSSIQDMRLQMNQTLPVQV
REPORTED PROPERTY: IC50 (nM)
The response must be a number in nM with no trailing unit.

Q: Any idea what IC50 came out for COc1ccc(N2Cc3cnc(Nc4ccc(F)cc4)nc3N(C3CC[C@@H](O)C3)C2=O)cc1 (single isomer, unassigned) on Ephrin type-B receptor 3 (Homo sapiens)?
A: 1250

----------
Molecular target: Platelet-derived growth factor receptor (Homo sapiens, UniProt P09619+P16234)
Assay: Inhibitory activity against recombinant human PDGFR
REPORTED PROPERTY: IC50 (nM)
Number in nM, nothing else.

Q: Item COc1ccc(N2Cc3cnc(Nc4ccc(F)cc4)nc3N(C3CC[C@@H](O)C3)C2=O)cc1 (single isomer, unassigned) has what recorded IC50?
A: 83

----------
Test: Half life in nude mice at 50 mg/kg, po
Type: ADME, organism-based
Parameters: dose 50 mg/kg, route oral
Conditions: mouse, in vivo
REPORTED PROPERTY: half-life
Answer shape: numeric part, then the unit.

Q: Recorded half-life for COc1ccc(N2Cc3cnc(Nc4ccc(F)cc4)nc3N(C3CC[C@@H](O)C3)C2=O)cc1 (single isomer, unassigned) , please?
A: 1.9 h

----------
Assay: AUC in Wistar rat at 5 mg/kg, iv
Format: ADME, organism-based
Parameters: dose 5 mg/kg, route intravenous
Details: plasma
REPORTED PROPERTY: AUC (ng·h/mL)
Answer with a number only, understood to be in ng·h/mL.

Q: Return reported AUC; argument: COc1ccc(N2Cc3cnc(Nc4ccc(F)cc4)nc3N(C3CC[C@@H](O)C3)C2=O)cc1 (single isomer, unassigned)
A: 2770

----------
Test: AUC in Wistar rat at 200 mg/kg, po
Assay type: ADME, organism-based
Design: dose 200 mg/kg, route oral
Conditions: plasma
REPORTED PROPERTY: AUC

Q: Dear colleague, I am looking for the recorded AUC of the following compound: COc1ccc(N2Cc3cnc(Nc4ccc(F)cc4)nc3N(C3CC[C@@H](O)C3)C2=O)cc1 (single isomer, unassigned)
A: 285 µg·h/mL

----------
Experiment: Cmax in Wistar rat at 200 mg/kg, po
Type: ADME, organism-based
Set-up: dose 200 mg/kg, route oral
Settings: in vivo
REPORTED PROPERTY: Cmax
State the value, then name its unit.

Q: So what's the measured Cmax for this one? COc1ccc(N2Cc3cnc(Nc4ccc(F)cc4)nc3N(C3CC[C@@H](O)C3)C2=O)cc1 (single isomer, unassigned)
A: 10300 ng/mL

----------
Experiment: Clearance in nude mice at 10 mg/kg, iv
Type: ADME, organism-based
Parameters: dose 10 mg/kg, route intravenous
Settings: mouse, in vivo
REPORTED PROPERTY: clearance (mL/min/kg)
Reply with just the number (in mL/min/kg).

Q: Can you share its clearance? I mean this molecule: COc1ccc(N2Cc3cnc(Nc4ccc(F)cc4)nc3N(C3CC[C@@H](O)C3)C2=O)cc1 (single isomer, unassigned)
A: 13.8

----------
Tested on: HUVEC
Test: Inhibitory activity against VEGF-induced proliferation of HUVEC cells
Type: functional, cell-based
Conditions: Homo sapiens
REPORTED PROPERTY: IC50

Q: Request - read-out IC50 | tested on HUVEC | compound COc1ccc(N2Cc3cnc(Nc4ccc(F)cc4)nc3N(C3CC[C@@H](O)C3)C2=O)cc1 (single isomer, unassigned)
A: 35 nM

----------
Test: Half life in Wistar rat at 5 mg/kg, iv
Type: ADME, organism-based
Design: dose 5 mg/kg, route intravenous
Conditions: in vivo
REPORTED PROPERTY: half-life

Q: Which measured half-life value corresponds to COc1ccc(N2Cc3cnc(Nc4ccc(F)cc4)nc3N(C3CC[C@@H](O)C3)C2=O)cc1 (single isomer, unassigned) ?
A: 4.3 h
